Just for reference, patent US11952364B2 is where these values come from.

System: Ba/F3 ETV6-NTRK3-G696C cells
Assay: Proliferation of Ba/F3 ETV6-NTRK3-G696C cells (CellTiter-Glo)
Format: cell-based, mouse
Conditions: Mus musculus, BaF3, Table 7-1; separate test; read-out: Ba/F3 ETV6-NTRK3-G696C, IC50
Test Readout: pIC50
When answering, recall that pIC50 equals minus log10 of the concentration in mol/L, and write that number alone.

>  <Compound>
COc1ccc(C(=O)Nc2ccc(Oc3cc4cnn(C)c4cc3-c3cn[nH]c3)c(F)c2)c(=O)n1-c1ccc(F)cc1

>  <Target Or System>
Ba/F3 ETV6-NTRK3-G696C cells

>  <Val>
8.52

$$$$
>  <Compound>
CCn1ncc2cc(Oc3ccc(NC(=O)c4ccc(C5CC5)n(-c5ccc(F)cc5)c4=O)cc3F)c(-c3cn[nH]c3)cc21

>  <Target Or System>
Ba/F3 ETV6-NTRK3-G696C cells

>  <Val>
7.85

$$$$
>  <Compound>
Cc1ccc(C(=O)Nc2ccc(Oc3cc4cnn(C)c4cc3-c3cn[nH]c3)c(F)c2)c(=O)n1-c1ccc(F)cc1 [Merestinib, reference compound]

>  <Target Or System>
Ba/F3 ETV6-NTRK3-G696C cells

>  <Val>
7.89

$$$$
>  <Compound>
CCn1ncc2cc(Oc3ccc(NC(=O)c4ccc(OC)n(-c5ccc(F)cc5)c4=O)cc3F)c(-c3cn[nH]c3)cc21

>  <Target Or System>
Ba/F3 ETV6-NTRK3-G696C cells

>  <Val>
7.96

$$$$

Continue with the next compound.
Report measured pIC50; entry is CCc1ccc(C(=O)Nc2ccc(Oc3cc4cnn(CC)c4cc3-c3cn[nH]c3)c(F)c2)c(=O)n1-c1ccc(F)cc1
7.92

====

Test system: KM12 cells
Assay: Proliferation of KM12 cells (CellTiter-Glo)
Assay type: cell-based, human
Settings: Homo sapiens, KM12, Table 1-1; separate test; read-out: KM-12, IC50
Excerpt: […]
Each record here notes measured IC50.
Report the figure in nM without appending any unit label.

In the examples that follow, each entry is paired with its recorded IC50.
>  <Compound>
Cc1ccc(C(=O)Nc2ccc(Oc3cc4cnn(C)c4cc3-c3cn[nH]c3)c(F)c2)c(=O)n1-c1ccc(F)cc1 [Merestinib, reference compound]

>  <Target Or System>
KM12 cells

>  <Test Readout>
IC50

>  <Val>
33

$$$$
>  <Compound>
COc1ccc(C(=O)Nc2ccc(Oc3cc4cnn(C)c4cc3-c3cn[nH]c3)c(F)c2)c(=O)n1-c1ccc(F)cc1

>  <Target Or System>
KM12 cells

>  <Test Readout>
IC50

>  <Val>
16

$$$$
>  <Compound>
CCn1ncc2cc(Oc3ccc(NC(=O)c4ccc(OC)n(-c5ccc(F)cc5)c4=O)cc3F)c(-c3cn[nH]c3)cc21

>  <Target Or System>
KM12 cells

>  <Test Readout>
IC50

>  <Val>
32

$$$$
>  <Compound>
CCc1ccc(C(=O)Nc2ccc(Oc3cc4cnn(CC)c4cc3-c3cn[nH]c3)c(F)c2)c(=O)n1-c1ccc(F)cc1

>  <Target Or System>
KM12 cells

>  <Test Readout>
IC50

>  <Val>
32

$$$$

Report measured IC50; entry is CCn1ncc2cc(Oc3ccc(NC(=O)c4ccc(C5CC5)n(-c5ccc(F)cc5)c4=O)cc3F)c(-c3cn[nH]c3)cc21
32
